target_entity: T1, human BACE1 (R&D Systems) (human, UniProt P56817)
T1 construct: recombinant, commercial (R&D Systems)
method_summary: SPR (Biacore)
quantity_name: Kd (nM)
Report the figure in nM without appending any unit label.

A selection of reference data follows.
binder	Kd (nM)
5874 (antibody, V domains shown, anti-BACE1 IgG) VH: EVQLLESGGGLVQPGGSLRLSCAASGFTFGSYAMSWVRQAPGKGLEWVSATSGSGGSTYYADSVKGRFTISRDNSKNTLYLQMDSLRAEDTAVYYCAKGGSQWLYAPGSWFDPWGQGTLVTVSS VL: EIVLTQSPATLSLSPGERATLSCRASQSVSSYLAWYQQKPGQAPRLLIYDASNRATGIPARFSGSGSGTDFTLTISSLEPEDFAVYYCVQRSNFPWTFGGGTKVEIK	1.3
5571 (antibody, V domains shown, anti-BACE1 IgG) VH: QVQLVQSGAEVKKPGSSVKVSCKASGGTFSSYAISWVRQAPGQGLEWMGNIIPIFGTANYAQKFQGRVTITADESTSTAYMELSSLRSEDTAVYYCARSGGTKYGMLDVWGQGTVVTVSS VL: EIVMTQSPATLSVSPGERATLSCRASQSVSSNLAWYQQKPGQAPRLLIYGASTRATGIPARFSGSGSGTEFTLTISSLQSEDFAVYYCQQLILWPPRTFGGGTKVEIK	7.31

## Task Field request: Kd | item: 5644 (antibody, V domains shown, anti-BACE1 IgG) VH: QLQLQESGPGLVKPSETLSLTCTVSGGSISSSSYYWGWIRQPPGKGLEWIGSIYYSGSTYYNPSLKSRVTISVDTSKNQFSLKLSSVTAADTAVYYCARVGHGISYFDLWGRGTLVTVSS VL: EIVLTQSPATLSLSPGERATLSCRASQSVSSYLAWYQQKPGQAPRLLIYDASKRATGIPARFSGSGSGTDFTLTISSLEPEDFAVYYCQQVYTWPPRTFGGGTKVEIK
## Result 13.3

Taken from patent US20180057604A1.
